test system: ENR+CD organoids (ISC to Paneth cell differentiation); test: Primary screen: basal (non-stimulated) lysozyme secretion LYZ.NS, 2.5-D 384-well ENR+CD organoid differentiation; type: cell-based, mouse; conditions: primary screen, dose 10.00 uM, standard z score
Structures can show the parent of a compound that is named as a salt.
Param threshold (-1) applies to Z.LYZ.NS; output Satisfied when value >= threshold, Not satisfied when value < threshold.

Query: Reported Z.LYZ.NS reaches at least -1 for O=C(NCc1cccc(O)c1)Nc1nc(-c2ccncc2)cs1 [RKI-1447] ?
Reply: Not satisfied

Query: Reported Z.LYZ.NS reaches at least -1 for Nc1cccc2c1C(=O)N(C1CCC(=O)NC1=O)C2=O (stereo not shown) [Pomalidomide] ?
Reply: Not satisfied

Query: Reported Z.LYZ.NS reaches at least -1 for COc1cc(Br)c(Nc2nc(-c3c(C)nc4ncccn34)cs2)c(Br)c1 [PTC-209] ?
Reply: Not satisfied

Query: Reported Z.LYZ.NS reaches at least -1 for C[C@H](NCc1ccc(OCc2cccc(F)c2)cc1)C(N)=O [Safinamide Mesylate, reference compound] ?
Reply: Satisfied

Query: Reported Z.LYZ.NS reaches at least -1 for O=C(NCCN1CCOCC1)c1ccc(Cl)cc1 [Moclobemide (Ro 111163)] ?
Reply: Satisfied

Query: Reported Z.LYZ.NS reaches at least -1 for Oc1c2ccccc2c2c3c(cccc13)N=N2 [SP600125] ?
Reply: Satisfied

Query: Reported Z.LYZ.NS reaches at least -1 for Oc1ccc(Nc2nc(-c3ccc(Cl)cc3)cs2)cc1 [SKI II] ?
Reply: Not satisfied

Query: Reported Z.LYZ.NS reaches at least -1 for CC(C)(C)c1cnc(CSc2cnc(NC(=O)C3CCNCC3)s2)o1 [SNS-032 (BMS-387032)] ?
Reply: Not satisfied

Query: Reported Z.LYZ.NS reaches at least -1 for CCC(=O)NCC[C@@H]1CCc2ccc3c(c21)CCO3 [Ramelteon] ?
Reply: Satisfied

* * *

Below, each of the compounds is paired with its reported Dose.FC.LYZ.S value.
test system: ENR+CD organoids (ISC to Paneth cell differentiation); assay: Primary screen: CCh-stimulated lysozyme secretion LYZ.S, 2.5-D 384-well ENR+CD organoid differentiation; type: cell-based, mouse; conditions: primary screen, dose 0.40 uM
All answers are understood in log2 fold change, so give the number only.

| compound | testResult |
| --- | --- |
| CN(C)CCCCC(=O)Nc1ccc(NC(=S)NC(=O)c2ccc(C(C)(C)C)cc2)cc1 | −0.109 |

Query: Read the entry `O=c1ncccn1[C@@H]1O[C@H](CO)[C@@H](O)[C@H]1O` and write its reported Dose.FC.LYZ.S.
Reply: 0.077

Query: Read the entry `CCC(=O)Nc1cccc(Oc2nc(Nc3ccc(N4CCN(C)CC4)cc3OC)ncc2Cl)c1` and write its reported Dose.FC.LYZ.S.
Reply: −0.034

Query: Read the entry `c1ccc(NCc2ccc(CNc3ccccn3)cc2)nc1` and write its reported Dose.FC.LYZ.S.
Reply: 0.007

Query: Read the entry COc1ccccc1Oc1c(NS(=O)(=O)c2ccc(C(C)(C)C)cc2)nc(-c2ncccn2)nc1OCCO [Bosentan Hydrate] and write its reported Dose.FC.LYZ.S.
Reply: 0.100

Query: Read the entry Cc1ccccc1C(=O)Nc1ccc(C(=O)N2CCCC(O)c3cc(Cl)ccc32)c(C)c1 (centres unmarked) and write its reported Dose.FC.LYZ.S.
Reply: 0.031

Query: Read the entry CCOc1ccccc1-n1c(C(C)N2CCN(C(=O)COc3ccc(Cl)cc3)CC2)nc2ccccc2c1=O (centres unmarked) and write its reported Dose.FC.LYZ.S.
Reply: 0.160

Query: Read the entry COc1cc(CCc2cc(NC(=O)c3ccc(N4CC(C)NC(C)C4)cc3)n[nH]2)cc(OC)c1 (centres unmarked) and write its reported Dose.FC.LYZ.S.
Reply: 0.083
